Target: T1, muANGPTL7-his (R&D Systems) (mouse, UniProt Q8R1Q3 22-337, limits assumed)
T1 construct: Bought protein; also called mouse ANGPTL7 protein
T1 sequence (looked up): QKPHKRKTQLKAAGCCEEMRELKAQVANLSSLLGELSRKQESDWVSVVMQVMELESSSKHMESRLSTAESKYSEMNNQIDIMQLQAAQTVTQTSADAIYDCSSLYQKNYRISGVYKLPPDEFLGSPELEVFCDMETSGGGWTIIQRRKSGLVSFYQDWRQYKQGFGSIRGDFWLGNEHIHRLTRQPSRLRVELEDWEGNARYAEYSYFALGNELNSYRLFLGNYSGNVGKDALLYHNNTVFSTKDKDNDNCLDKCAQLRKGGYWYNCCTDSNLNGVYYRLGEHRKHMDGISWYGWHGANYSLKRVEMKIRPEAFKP
Test: BLI Octet HTX; IgG on AHC sensor; muANGPTL7-his at 200 nM; 1:1 fit
Give rule met when the value for Response is at least 0.3 nm. Give rule not met when it is less.

Some entries whose results are on file:
ATX-P-449 (antibody, human IgG1, kappa, N297A, V domains shown, Full chains (VH + hIgG1-Agly-Fc)) VH: QVQLVESGGGVVQPGRSLRLSCAASGFAFSSYGMHWVRQAPGKGLEWVAVISYYGSNKYYADSVKGRFTISRDNSKNTLYLQMNSLRAEDTAVYHCARGITMDVWGKGTTVTVSS VL: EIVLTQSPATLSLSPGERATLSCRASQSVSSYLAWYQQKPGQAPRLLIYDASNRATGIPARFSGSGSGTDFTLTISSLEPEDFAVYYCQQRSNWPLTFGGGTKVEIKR    rule met
ATX-P-427 (antibody, human IgG1, kappa, N297A, V domains shown, Full chains (VH + hIgG1-Agly-Fc)) VH: EVQLVESGGGVVRPGGSLRLSCAASGFSFDDYGMSWVRQVPGKGLEWVSGINWNGGSTGYADSVKGRFTISRDNAKNSLYLQMSSLRAEDTALYYCASYSGSFRDAFDIWGQGTMVTVSS VL: AIQMTQSPSSLSASVGDRVTITCRASQGIRNDLGWYQQKPGKAPKLLIYAASSLQSGVPSRFSGSGSGTDFTLTISSLQPEDFATYYCLQDYNYPYTFGQGTKLEIKR    rule met
ATX-P-423 (antibody, human IgG1, kappa, N297A, V domains shown, Full chains (VH + hIgG1-Agly-Fc)) VH: QVQLVESGGGVVQPGRSLRLSCAASGFTFSSYGMHWVRQAPGKGLEWVSHITYDGSDKYYGDSVKGRFTISRDNSKNTLYLQMNSLRAEDTAVYYCAKDGYSSGWWYFDYWGQGTLVTVSS VL: DIQMTQSPSSLSASVGDRVTITCRASQGIRNDLGWYQQKPGKAPKRLIYAASSLQSGVPSRFSGSGSGTEFALTISSLQPEDFATYYCLQHNSYPLTFGGGTKLEIKR    rule not met
ATX-P-440 (antibody, human IgG1, kappa, N297A, V domains shown, Full chains (VH + hIgG1-Agly-Fc)) VH: EVQLVESGGGVVRPGGSLRLSCAASGFTFDDYGMSWVRQAPGKGLEWVSTINWNGGNTGYADSVKGRFTISRDNAKNSLYLQMNSLRAEDTALYYCARDEGAAGLGYYFDYWGQGTLVTVSS VL: DIQMTQSPSTLSASVGDRVTITCRASQSISSWLAWYQQKPGKAPKLLIYATSSLQSGVPSRFSGSGSGTDFTLTISSLQPEDFATYYCQQSYSTPITFGQGTRLEIKR    rule not met

Kindly consider the entry below.
In: Is Response for ATX-P-442 (antibody, human IgG1, kappa, N297A, V domains shown, Full chains (VH + hIgG1-Agly-Fc)) VH: QITLKESGPTLVKPTQTLTLTCTFSGFSLSTSGVGVGWIRQPPGKALEWLALIYWNDDKRYSPSLKSRLTITKDTSKNLVVLTMTNMDPVDTATYYCARDYGDYWFFDLWGRGTPVTVSS VL: DIQMTQSPSSLSASVGDRVTITCRASQGISSYLAWYQQKPGKAPKLLIYAASSLQSGVPSRFSGSGSGTDFTLTISSLQPEDFATYYCQQSFSTPLTFGGGTKLEIKR at or above 0.3 nm?
Out: rule met
